TARGET: T1, Peptide B (human PAR-2), C-terminal biotinylated (Human, not fully specified)
T1 construct: also called Peptide B C-Term
T1 peptide: SLIGKVDGTSHVTGGGGGS-biotin
METHOD: SPR, peptide immobilized
Where no end group is shown, it is not given here.
In this section we review reported T1/2 values for a set of binders.
ASSAY_READOUT: T1/2 (h)

{"columns": ["BINDER", "ASSAY_READOUT", "ENDPOINT_VALUE"],
 "data": [
  ["H2M588N (antibody, V domains shown, chimeric: human variable, mouse constant domains) VH: EVQLLESGGGLVQPGGSLRLSCAASGFTFSSYAMTWVRQAPGKGLYWVSAISGGRGSAYYADSVKGRFTISRDNSKNTLYLQMNSLRAEDTAVYYCAKEGDSGYDLAYWGRGTLVTVSS VL: DIQMTQSPSSLSASVGDRVTITCRARQGISNNLAWLQQKPGKAPKSLIYAASSLQSGIPSKFSGSGSGTYFTLTISSLQPEDFATYYCQQYKSSPLTFGGGTKVEIK", "T1/2", 2.33],
  ["H4H585P (antibody, human IgG4, V domains shown, also called H1H585P variable regions) VH: QVQLVESGGGVVQPGRSLRLSCVASGFTFSRYGMHWVRQAPGKGLEWLIVISYDGINKYYADSVKGRFTISRDNSKNTVYLQMNSLRAEDTAVYYCAKGDFWSGYFDYWGQGTLVTVSS VL: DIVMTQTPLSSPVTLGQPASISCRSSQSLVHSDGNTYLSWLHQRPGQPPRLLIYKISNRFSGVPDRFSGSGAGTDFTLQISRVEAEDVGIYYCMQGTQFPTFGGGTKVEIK", "T1/2", 2.05],
  ["H4H588N (antibody, human IgG4, V domains shown, also called H2M588N variable regions) VH: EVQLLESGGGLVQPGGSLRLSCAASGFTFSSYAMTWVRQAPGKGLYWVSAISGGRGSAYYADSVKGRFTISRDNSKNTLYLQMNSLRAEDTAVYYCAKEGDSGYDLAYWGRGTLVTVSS VL: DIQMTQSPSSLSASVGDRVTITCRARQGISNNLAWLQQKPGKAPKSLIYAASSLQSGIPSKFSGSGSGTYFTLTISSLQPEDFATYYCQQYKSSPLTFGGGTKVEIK", "T1/2", 1.17]
]}
